- Test system: DeltatarO mutant
- assay-name: S. aureus survival, RN4220 and DeltatarO strains – OD600, teichoic acid synthesis inhibitors, primary screen (AID 463173)
- condition: S. aureus RN4220 wild type/DeltatarO growth, OD600, 18 h, screened at 18.75 µg/mL (by protocol)
Screen size: about 52,000 compounds; about 4,300 (8.3%) were called active. Rule as the data show it: active = survival mostly below about 52% (no sharp cut-off); inactive = mostly above about 56%. The full list was thinned out, with actives kept by preference.
Allowed answers: 1 for active, 0 for inactive

Consider the following illustrative entries.
molecule	group-label
COc1ccc(-c2noc(CN3CCN(c4cccc(Cl)c4)CC3)n2)cc1	1
CC1=C(c2ccc(C(C)C)cc2)S(=O)(=O)NC1=NCc1ccccc1C	0
CCc1ccc(CNC(=O)CN(c2ccc(C)cc2)S(=O)(=O)N(C)C)cc1	0
CCN(C(=O)CCc1nc(-c2ccc(C)cc2)no1)c1cccc(Cl)c1	1
COc1cccc(N2CCN(C(=O)CCn3nc(C)c(S(=O)(=O)N4CCCC4)c3C)CC2)c1	0

Ask | Record request — test call for CCCSc1nc(-c2ccc(OC)cc2)cc(-c2ccccc2OC)c1C#N
Reply | 0

Ask | What call does the record list for Cc1cc(C)cc(NC(=O)NCCc2c(C)nn(C)c2C)c1 ?
Reply | 0

Ask | Assay result, entry COc1ccc(N2CCN(Cc3nc(-c4ccc(C)cc4)no3)CC2)cc1 — outcome?
Reply | 0

Ask | Could you please tell me the result logged for COc1cc(-c2noc(CN3CCN(c4cccc(Cl)c4)CC3)n2)cc(OC)c1OC in this assay?
Reply | 0

Ask | Call for entry COc1ccc(C2C=C(c3ccccc3)Nc3nc(NC(=O)c4ccc(C)cc4)nn32)cc1 (stereo unspecified) :
Reply | 1

Ask | Look up the recorded call for COc1ccccc1-c1cc(-c2ccc(O)cc2)nc(N)c1C#N in this test.
Reply | 1

Ask | Hi, sorry to bother you, what did the test record for CN(C)c1ccc(-c2cc(-c3ccccc3)c(C#N)c(N)n2)cc1 ?
Reply | 0

Ask | Outcome? COc1ccc(C2C=C(c3ccccc3)Nc3nc(NC(C)=O)nn32)cc1 (stereo unspecified)
Reply | 0
